Data credit: PubChem BioAssay (NCI)

- Test system: A549/ATCC NSCLC
- Assay summary: NCI-60 one-dose screen, 48 h
- Recorded conditions: 10 µM unless noted
- Description: Growth inhibition of the A549/ATCC human Non-Small Cell Lung tumor cell line is measured as a screen for anti-cancer activity. Cells are grown in 96 well plates and exposed to the test compound for 48 hours. Compounds are tested at a single concentration, which is 10^-5 M for most compounds. The reported endpoint is percent growth (GI% or GIPRCNT), where numbers from 0 - 100% represent growth inhibition, and numbers from -100% - 0 represent cell death. […]
About 83,000 compounds went through this panel and 20% of them were active in at least one assay; those are over-represented in the sample as a whole. The source made the active and inactive calls. How the source made its calls: active means growth percent below 10; inactive means the rest.
Please state which outcome applies, choosing from 1.0 = active, 0.0 = inactive

Consider the following illustrative entries.
> print(dat)
                                   compound  cat
1  COc1ccc(-c2cc(-c3nnc(SCC(=O)Nc4ccc(C(C)=O)cc4)n3-c3ccccc3)c3ccccc3n2)cc1OC  0.0
2           Nc1ccc2c(c1)Cc1cc(Cl)c(Cl)cc1-2  0.0
3  Cc1cc(C)nc(NS(=O)(=O)c2ccc(Nc3nc4nc(SCc5ccccc5)nc(-c5ccc(O)cc5)c4c(=O)[nH]3)cc2)n1  0.0
4             CC(C)N(Cc1ccccc1)c1c(S)ssc1=S  1.0

Could you please tell me the result logged for O=C1C2C(C(=O)N1CC[Se][Se]CCN1C(=O)C3C(C1=O)[C@H]1C=C[C@@H]3C1)[C@H]1C=C[C@@H]2C1 (stereo not given in full) in this assay? 1.0

Could you please tell me the result logged for O=C(Oc1ccccc1)C(Br)C(Br)c1ccccc1 (stereo not given) in this assay? 0.0

Could you please tell me the result logged for O=C1CNc2cc(Cl)ccc2N1 in this assay? 0.0

Could you please tell me the result logged for O=C(/C=C/c1ccc(C(F)(F)F)cc1)c1ccc(Nc2nc(NCCO)nc(NCCO)n2)cc1 in this assay? 0.0

Could you please tell me the result logged for C(=C1c2ccccc2-c2ccccc21)c1ccncc1 in this assay? 0.0

Could you please tell me the result logged for O=C(O)c1ccc2cccnc2c1O in this assay? 0.0

====

- Tested on: 786-0 renal
- Assay summary: NCI-60 one-dose screen, 48 h (100 = growth as untreated, 0 = no growth, -100 = all killed)
- Recorded conditions: 10 µM unless noted
About 83,000 compounds went through this panel and 20% of them were active in at least one assay; those are over-represented in the sample as a whole.
Quantity measured: growth (%)
Your answer is read as %, so omit the unit and give the number.

// solved cases for growth follow
> print(dat)
                                    compound  quantity.measured  data.value
 1  C#C[C@]1(O)CCC2C3CCc4cc(O)ccc4C3CC[C@@]21C (stereo partly specified)             growth        44.3
 2  Nc1ccc(Oc2c(F)c(F)c(Oc3ccc(N)cc3)c(F)c2F)cc1             growth         106
 3  CCOc1cc(/C=C/C(=O)CC(=O)/C=C/c2ccc(OC(=O)CNCCN(CC)CC)c(OCC)c2)ccc1OC(=O)CNCCN(CC)CC             growth       -91.6
 4  C=C1CCC2C3(C)COC(c4ccccc4)OC3CCC2(C)C1C/C=C1/C(=O)OCC1OC(C)=O (stereo unspecified)             growth        95.3
 5                      CCCCc1ccc(C(N)=O)nc1             growth        92.6
 6  O=CNc1ccc2c(c1)Cc1cc([N+](=O)[O-])ccc1-2             growth        38.1
 7           Nc1ccc2c(c1)Cc1cc(Cl)c(Cl)cc1-2             growth        59.7
 8  N#Cc1c(-c2ccccc2)cc(-c2ccccc2)n(CCCCC(=O)O)c1=O             growth        93.7
 9  Clc1ccc2c(c1)C(Br)c1cc(Cl)cc(Cl)c1-2 (stereo unspecified)             growth        84.9
10  COc1ccc(NC(=O)[C@@H]2C[C@H]2c2ccccc2)c(C(N)=O)c1             growth         106

Now look at this one.
For record Cc1ccc(C(=O)Cc2ccccc2)c(O)c1 the listed growth is 112

====

- System: OVCAR-4 ovarian
- Assay summary: NCI-60 one-dose screen, 48 h
- Recorded conditions: 10 µM unless noted
This is part of a sample that, as a whole, favours compounds with a hit. Of some 83,000 tested, about 20% had one in any assay. Activity calls are given as the source filed them. How the source made its calls: active means growth percent below 10; inactive means the rest.
Please state which outcome applies, choosing from active, inactive

Consider the following illustrative entries.
Molecule	System	Cat
Cc1ccc(C(NC(=O)c2ccccc2)c2ccc3cccnc3c2O)cc1 (centres undefined)	OVCAR-4 ovarian	inactive
COC(=O)C1(NC(=O)CNC(=O)OCc2ccccc2)CCCC1	OVCAR-4 ovarian	inactive
COc1ccc2nc(-c3ccc(Cl)cc3)cc(-c3nnc(SCC(=O)Nc4ccc(C(C)=O)cc4)n3-c3ccccc3)c2c1	OVCAR-4 ovarian	inactive
COc1ccc2nc(NC(=O)CN3CCn4c(nnc4C(F)(F)F)C3)sc2c1	OVCAR-4 ovarian	inactive
COC(=O)Nc1ccc2ccc3c(NC(=O)OC)ccc4ccc1c2c43 (tested in a mixture with another compound)	OVCAR-4 ovarian	inactive

Could you please tell me the result logged for CCN(CC)c1ccc(N=C2C=CC(=O)C=C2NC(C)=O)cc1 in this assay? inactive

Could you please tell me the result logged for C[C@H]1c2cccc(O)c2C(O)=C2C(=O)[C@]3(O)C(O)=C(C(N)=O)C(=O)[C@@H](N(C)C)[C@@H]3[C@@H](O)[C@@H]21 in this assay? inactive

Could you please tell me the result logged for COc1cccc(-c2nc(-c3ccc(N)cc3)co2)c1 in this assay? inactive

Could you please tell me the result logged for CC(=O)c1nn(-c2ccccc2)c(=Nc2ccccc2)cc1C in this assay? inactive

====

Listed next: entries and their corresponding growth.
- Test system: SK-OV-3 ovarian
- Assay summary: NCI-60 one-dose screen, 48 h (100 = growth as untreated, 0 = no growth, -100 = all killed)
- Recorded conditions: 10 µM unless noted
Compounds without any hit were thinned out: in the full panel of roughly 83,000, 20% have a hit.
Your answer is read as %, so omit the unit and give the number.

// solved cases for growth follow
Compound	System	growth / %
CCOC(=O)c1cnc2c(C)cc(C)cc2c1NCCCN(C)C	SK-OV-3 ovarian	38.6
Cc1c2oc3c(C)ccc(C(=O)OC(C)C4NC(=O)C(C(C)C)N(C)C(=O)CN(C)C(=O)C5CCCN5C(=O)C(C(C)C)NC4=O)c3nc-2c(C(=O)OC(C)C2NC(=O)C(C(C)C)N(C)C(=O)CN(C)C(=O)C3CCCN3C(=O)C(C(C)C)NC2=O)c(N)c1=O (stereo unspecified)	SK-OV-3 ovarian	22.5
O=C(Nc1nn2c(-c3cc(C(F)(F)F)cc(C(F)(F)F)c3)nnc2s1)C1CCCC1	SK-OV-3 ovarian	5.54
O=C(/C=C/c1ccc([N+](=O)[O-])cc1)c1ccc2c3c(cccc13)CC2	SK-OV-3 ovarian	91.4
CCOC(=O)C1C(=O)NC(C(=O)OCC)(C(=O)OCC)C1CC (stereo unspecified)	SK-OV-3 ovarian	112

Now look at this one.
Per the reported SK-OV-3 ovarian data, CC1Cc2ccccc2N1C(=O)c1ccc(C(=O)c2ccccc2)cc1 (stereo unspecified) has growth of 102

====

- Tested on: NCI-H322M lung
- Assay summary: NCI-60 one-dose screen, 48 h
- Recorded conditions: 10 µM unless noted
Compounds without any hit were thinned out: in the full panel of roughly 83,000, 20% have a hit. Calls of active or inactive are those of the source. How the source made its calls: active means growth percent below 10; inactive means the rest.
Please state which outcome applies, choosing from active, inactive

Compound	Cat
COc1c(O)cc2c(c1CC=C(C)C)OC(=O)c1c(cc(O)c(CC=C(C)C)c1O)O2	inactive

Could you please tell me the result logged for C[C@H]1O[C@@H](O[C@H]2[C@@H](O)C[C@H](O[C@H]3[C@@H](O)C[C@H](O[C@H]4CC[C@]5(C)C6C[C@@H](O)[C@]7(C)[C@@H](C8=CC(=O)OC8)CC[C@]7(O)C6CC[C@@H]5C4)O[C@@H]3C)O[C@@H]2C)C[C@H](O)[C@@H]1O (some centres not stated) in this assay? active

Could you please tell me the result logged for CCOC(CNCc1cc(C)c2[nH]c3ccccc3c2c1C)OCC in this assay? inactive

Could you please tell me the result logged for CN1CCN(CCCCCN=c2cc3c(=O)n(CCCCCN4CCN(C)CC4)c(=O)c4c(NCCCCCN5CCN(C)CC5)cc5c(O)n(CCCCCN6CCN(C)CC6)c(=O)c2c5c4-3)CC1 in this assay? active

Could you please tell me the result logged for Nc1ccn(C2O[C@H](CO)[C@@H](O)[C@@H]2O)c(=O)n1 (some centres not stated) in this assay? inactive

Could you please tell me the result logged for Cc1n(Cc2ccc3ccccc3c2)c2ccccc2[n+]1Cc1ccc2ccccc2c1 in this assay? active

Could you please tell me the result logged for O=C1CNc2cc(Cl)ccc2N1 in this assay? inactive
